B1: Hairpin Ribozyme (parent)
chain: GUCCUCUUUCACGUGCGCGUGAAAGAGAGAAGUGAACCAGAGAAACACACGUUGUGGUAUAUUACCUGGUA

# Variants of: B1
# METHOD_SUMMARY: self-cleavage, relative activity (ratio to wild type); higher = more cleavage; co-transcriptional
self-cleavage values for the variants below.
EXPERIMENTAL_READOUT: self-cleavage

[
  {
    "MUTATIONS": "C18A G69A",
    "EXPERIMENTAL_READOUT": "self-cleavage",
    "ENDPOINT_RESULT": 0.455
  },
  {
    "MUTATIONS": "G34C C48G",
    "EXPERIMENTAL_READOUT": "self-cleavage",
    "ENDPOINT_RESULT": 0.16
  },
  {
    "MUTATIONS": "C12U G56C",
    "EXPERIMENTAL_READOUT": "self-cleavage",
    "ENDPOINT_RESULT": 0.137
  },
  {
    "MUTATIONS": "A59G U62A",
    "EXPERIMENTAL_READOUT": "self-cleavage",
    "ENDPOINT_RESULT": 0.144
  },
  {
    "MUTATIONS": "A22C G25A",
    "EXPERIMENTAL_READOUT": "self-cleavage",
    "ENDPOINT_RESULT": 0.247
  },
  {
    "MUTATIONS": "A45G U52G",
    "EXPERIMENTAL_READOUT": "self-cleavage",
    "ENDPOINT_RESULT": 0.0854
  },
  {
    "MUTATIONS": "A24G G57U",
    "EXPERIMENTAL_READOUT": "self-cleavage",
    "ENDPOINT_RESULT": 0.307
  },
  {
    "MUTATIONS": "U5C",
    "EXPERIMENTAL_READOUT": "self-cleavage",
    "ENDPOINT_RESULT": 0.648
  },
  {
    "MUTATIONS": "G27A C38G",
    "EXPERIMENTAL_READOUT": "self-cleavage",
    "ENDPOINT_RESULT": 0.0969
  },
  {
    "MUTATIONS": "A31U G51C",
    "EXPERIMENTAL_READOUT": "self-cleavage",
    "ENDPOINT_RESULT": 0.15
  },
  {
    "MUTATIONS": "C12U A43U",
    "EXPERIMENTAL_READOUT": "self-cleavage",
    "ENDPOINT_RESULT": 0.22
  }
]
